Measured values drawn from the nanobody polyreactivity screen of Harvey et al. (2022) for this set.

Assay: yeast display, Sf9 membrane polyspecificity reagent, FACS + sequencing; frameworks hold sequencing errors
metric name: polyreactivity (PSR sort gate)

The following sequences have reported results that may help.
Indicate its recorded polyreactivity (PSR sort gate); the sequence in question is "QVQLVESGGGLVQAGVSLRLSCAASGRIFDRNAMGWYRQAPGKERELVARISRTGGSTYYADSVKGRFTISRDNAKNTVYLQMNSLKPEDTAVYYSAASRGGGYDYWGQGTQVTVSS"
high polyreactivity

Indicate its recorded polyreactivity (PSR sort gate); the sequence in question is "QVQLVESGGGLVQAGGSLRLSCAASGFTFRRNAMGWYRQAPGKERELVAAISSGGGTYYADSVKGRFTISRDNAKNTLYLQMNSLKPEETAVYYCNAAGQVRKYGYWGQGTEVTVSS"
high polyreactivity

Indicate its recorded polyreactivity (PSR sort gate); the sequence in question is "QVQLVESGGGLVQAGGSLRLSCAASGNTIKGYAMGLYRQAPGKERELVAAISWSGSSTYYADSVKGRFTISRDNAKYSVYLHKNSVKPEDTAVYYCNRKYLGRYASVYGYGYWGQGTQVTVSS"
high polyreactivity

Indicate its recorded polyreactivity (PSR sort gate); the sequence in question is "QVQLVESGGGLVQAGGSLRLSCAASGIIFSFYAMGWYRQAPGKERELVAAISRSGGSTYYADSVKGRFTISRDNEKNSVYLQMNSLKPEDTAVYYCNADNGASYYYRRYDSLGQGTQVTVSS"
high polyreactivity

Indicate its recorded polyreactivity (PSR sort gate); the sequence in question is "QVQLVESGGGLVQAGGSLRLSCAASGSIFRSNAMGWYRQAPGKERELVAAITSGTRKYYADSVKGRFTISRDNAKNTVYLQMNSLKPEDTAVYYCATKGSKYDRGYWGQGTQVTVSS"
high polyreactivity

---
Indicate its recorded polyreactivity (PSR sort gate); the sequence in question is "QDQLVESGGGLVQAGGSLRLSCAASGIIFYGYAMGWYRQAPGKERQLVAGISSGGSTYYADSVKGRFTISRDNAKNTVYLQMNSLNPEDTAVYYCNAEGGYSYESTDHYRYDYWGLGTQVTVSS"
low polyreactivity

Indicate its recorded polyreactivity (PSR sort gate); the sequence in question is "LVQLVESGGGIVQAGGSLRLSCAASGLISQRNVMGWYRQAPGKERELVARISTSSSGTYYADSVKGRFTISRDNAKNTVYLQMNSLKPEDTAVYYCAKRWSPYYRLYSWGQGTQVTVSS"
high polyreactivity
